system: K4 kissing-loop RNA reporter; assay: apparent KD of K4 kissing-loop reporter; higher = weaker reporter binding; details: Eterna round: R107; input ligand: none;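 also: bound reporter read as fluorescence of individual clusters on recovered sequencing chips by microscopy, with normalized cluster intensities fitted with a binding model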
Label Criterion met for high-side apparent KD of K4 kissing-loop reporter (at or above 200 nM) and Criterion not met for low-side apparent KD of K4 kissing-loop reporter (below it).

INPUT SEQUENCE	MEASURED TARGET	GROUP LABEL
AGUGUGCAAAAGCACACUCAGAACAAGGACAAGGAUAUCUACUAAUAGAGAAGGUGUCCUUUCCUUAGUGAUGUUAAGGAUCUGA [Omei KL FMN A SS D v4]	K4 kissing-loop RNA reporter	Criterion met
CGCGCGCGCCGCAAGGCGCGCGCGAACGAUACCAGUAUAUAAGAAUACCCUUGGCAGCGUAAGAAAGCUAUAGUGAUGUUGUAGA [#19 K4 Theophylline A Same State]	K4 kissing-loop RNA reporter	Criterion met
GGAGGUUGGUGCGAUACCAGACCUGCAGUGAUGUUGCGCCAAAGUGAGUGAUGUUCACCGGUCCCUUGGCAGCGCGUCCCUUUAG [Same State Theophylline B GF 15]	K4 kissing-loop RNA reporter	Criterion met

Prompt: API: above_or_equal(metric=apparent KD of K4 kissing-loop reporter, cutoff=200 nM) for item GGAUAGGAUAGAGGAUAUGGUUUAUGCAAGAAUAACUUAUCGUGUAAAUCCAUAGGGAGUGAUGUUCCAGAAGGCUGUCCUAUCG [MatMod 12 - Jieux - Exclusion - FMN B]
Response: Criterion met

Prompt: API: above_or_equal(metric=apparent KD of K4 kissing-loop reporter, cutoff=200 nM) for item AAUACCUGAGUGAUGUUCAGGGAAUCAGAAGGAGCGUCAAUUAUGACAGGUAGGUCGCUGAAGACAUGUGUGUAUACACAUGUCC [#04 K4 Arginine A Same State]
Response: Criterion met

Prompt: API: above_or_equal(metric=apparent KD of K4 kissing-loop reporter, cutoff=200 nM) for item GCAUAGGCCCAUCGGAAUUCGAGACCAGCACGAGGACCGGUACGGCCGCCACUCGUGCAGUGAUGUUGCACGAUUGGGAAACCGC [Beanveceti]
Response: Criterion not met

Prompt: API: above_or_equal(metric=apparent KD of K4 kissing-loop reporter, cutoff=200 nM) for item CACCAUGAAUUCUCUAGGAGUGAUGUUUUUCGAGGACCGGUACGGCCGCCACUCGGACGAGGAACGUGGGAGCGGCGAAAAGACU [xzzmullin]
Response: Criterion met

Prompt: API: above_or_equal(metric=apparent KD of K4 kissing-loop reporter, cutoff=200 nM) for item AAAACCAAAAGCGAUACCAGCGCGGAGUGAUGUUCCGAGGAUCGGAGUGAUGUUCCGAAGCGCCCUUGGCAGCGCAAAAGCGCAA [Exclusion Theophylline B GF 7]
Response: Criterion not met

Prompt: API: above_or_equal(metric=apparent KD of K4 kissing-loop reporter, cutoff=200 nM) for item AUUAAUAUCACGGCCGCCACUGUAUAUUGUUUUUAUAUUUAGAAUAAUUGCCAGUGAUGUUGGAACAGGACCGGGUGAGUUUAUA [#28 K4 Tryptophan B Same State]
Response: Criterion met

Prompt: API: above_or_equal(metric=apparent KD of K4 kissing-loop reporter, cutoff=200 nM) for item AAACAUAAGUCUGAUACCAGCCUGGGAGAAGUGAUGUUUCUCGGUGCAUAACGCCUAUAAGGCCCUUGGCAGCAGCAUGCGCUUC [theeternabot_sameState_KL_Theo_B_10]
Response: Criterion met
